- System Under Test: Proteasome subunit beta (Trypanosoma cruzi) (UniProt O96673)
- Sequence (O96673 as listed by the source): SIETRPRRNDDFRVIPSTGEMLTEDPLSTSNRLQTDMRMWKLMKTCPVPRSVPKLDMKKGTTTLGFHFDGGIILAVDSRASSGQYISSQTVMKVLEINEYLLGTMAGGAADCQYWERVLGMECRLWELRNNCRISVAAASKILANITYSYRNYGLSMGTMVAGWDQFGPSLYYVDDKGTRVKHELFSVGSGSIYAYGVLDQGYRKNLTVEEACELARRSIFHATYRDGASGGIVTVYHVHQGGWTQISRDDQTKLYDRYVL
- Method Notes: Trypanosoma cruzi proteasome chymotrypsin-like activity (TcProtChymo) assay. Also: in the data most compounds retested in dose-response had high values.
- Format: functional
- Set-up: scale not given: direction of the effect not stated beside the values
- Cond: 9.37 µM
Kind request: treat 9% as inclusive, so Percent Effect at 9% or higher is yes, anything lower is no.

CN(Cc1ccc(F)cc1)C(=O)Cn1nc(-c2ccc(F)cc2)oc1=O: yes
O=C(C1CCCc2[nH]ncc21)N1CCCC1 (stereo unspecified): no
c1ccc(CCN2CCOC(Cn3cccn3)C2)nc1 (stereo unspecified): no
CCS(=O)(=O)N1CCc2ccc(NC(=O)Nc3ccc(F)cc3F)cc21: yes

Pending molecule:
Please indicate if the recorded Percent Effect for `CS(=O)(=O)CC(=O)N1C[C@H]2CCC[C@@]2(COCc2ccccn2)C1` meets or exceeds 9%.
yes

###

- Tested on: Trypanosoma cruzi
- Method Notes: Trypanosoma cruzi phosphomannomutase and mannose-1-phosphate guanylyltransferase assay
- Format: functional
- Set-up: scale not given: direction of the effect not stated beside the values
- Cond: 10 µM
Metric Name: Percent Effect (%)
Express your answer in %, writing the number without its unit.

Would you please look over these solved cases?
CC(C)c1nn(C)c(N(C)C)c1CNCc1ccccc1CN(C)C: 1.13
Cc1cc(C(F)(F)F)c2c(C3CCN(S(=O)(=O)N(C)C)CC3)noc2n1: -0.395
O=S(=O)(NCC1CCN(c2cnccn2)CC1)c1c(F)cccc1F: -5.82
OCCOCCN1CCCC1c1nc2cc(F)ccc2[nH]1 (stereo not drawn): -13.1
CC(C)(O)CN1CCN(C(=O)c2cc3ccccc3c(=O)[nH]2)CC1: -3.6

// moving on: another record for Percent Effect
Consider the compound `NC(=O)C1CCN(C(=O)NCc2ccccc2Cn2cncn2)CC1` . State its measured Percent Effect.
-3.86

###

Percent Effect values by entry
- System Under Test: Tyrosyl-tRNA synthetase, putative (Trypanosoma cruzi (strain CL Brener)) (UniProt Q4DSP6)
- Sequence (Q4DSP6 as listed by the source): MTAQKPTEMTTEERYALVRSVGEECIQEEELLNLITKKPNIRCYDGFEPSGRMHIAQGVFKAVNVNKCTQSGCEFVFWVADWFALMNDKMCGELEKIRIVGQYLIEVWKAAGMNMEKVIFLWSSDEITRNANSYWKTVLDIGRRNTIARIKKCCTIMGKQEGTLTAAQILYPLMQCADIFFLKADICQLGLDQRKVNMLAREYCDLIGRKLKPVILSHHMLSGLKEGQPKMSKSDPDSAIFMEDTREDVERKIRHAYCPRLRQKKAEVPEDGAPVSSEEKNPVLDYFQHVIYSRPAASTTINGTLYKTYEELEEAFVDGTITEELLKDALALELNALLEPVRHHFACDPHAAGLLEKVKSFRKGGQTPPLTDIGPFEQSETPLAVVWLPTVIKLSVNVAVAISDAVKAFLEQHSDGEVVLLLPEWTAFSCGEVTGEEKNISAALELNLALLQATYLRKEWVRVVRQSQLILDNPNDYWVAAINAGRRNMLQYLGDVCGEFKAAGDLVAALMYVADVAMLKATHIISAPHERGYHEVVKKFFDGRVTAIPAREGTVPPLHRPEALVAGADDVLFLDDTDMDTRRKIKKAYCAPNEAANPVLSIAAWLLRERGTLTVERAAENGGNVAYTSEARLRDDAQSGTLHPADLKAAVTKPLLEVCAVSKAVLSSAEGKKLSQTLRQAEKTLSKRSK
- Method Notes: Trypanosoma cruzi tyrosyl tRNA synthetase (TcYRS) SOP
- Assay type: functional
- Set-up: scale not given: direction of the effect not stated beside the values
- Cond: 30 µM

Would you please look over these solved cases?
CCN(CC)CCNC(=O)c1cnc(C(C)(C)C)s1: -6.17%
Cc1nc(COC[C@]23COC[C@H]2CN(Cc2ccoc2)C3)cs1: 11.1%
CC(C)(C)n1cc(C(=O)N2CCN(Cc3ccccc3F)CC2)cn1: 21.9%

// moving on: another record for Percent Effect
Consider the compound `CCCNC(=O)CCNC(=O)Cc1nc(-c2ccco2)oc1C` . State its measured Percent Effect.
8.64%

###

- Test system: Trypanosoma cruzi
- Method Notes: Trypanosoma cruzi phosphomannomutase and mannose-1-phosphate guanylyltransferase assay
- Type: functional
- Parameters: scale not given: direction of the effect not stated beside the values
- Cond: 10 µM
Metric Name: Percent Effect (%)
Express your answer in %, writing the number without its unit.

Would you please look over these solved cases?
CNC(=O)[C@H]1C[C@H]2OCC[C@H]2N(Cc2cccc3ccccc23)C1: -0.296
O=S(=O)(Cc1ccccc1F)NCCCN1CCCCC1: 1.66
Fc1ccc(-c2nnc(CN3CCOC(Cn4cncn4)C3)o2)cc1 (configuration not stated): -2.62
Cc1cc(C)c(CNC(=O)N2CCN(c3ncccn3)CC2)c(=O)[nH]1: 5.08
O=S(=O)(C1CC1)N1CC[C@]2(C[C@@H](Oc3ccccn3)CO2)C1: -2.46

Consider the compound `Cc1noc(Cl)c1CCC(=O)N1CCN(c2ncccn2)CC1` . State its measured Percent Effect.
-11.1

Consider the compound O=C(CCN1CCCC1c1cccs1)N1CCc2sccc2C1 (configuration not stated) . State its measured Percent Effect.
-1.6

###

Percent Effect values by entry
- System Under Test: Chromo domain-containing protein 1 (Saccharomyces cerevisiae (strain ATCC 204508 / S288c) (Baker's yeast))
- Method Notes: ScCHD-1 Enzyme Inhibition Assay; also: in the data most compounds retested in dose-response had high values
- Assay type: functional
- Parameters: scale not given: direction of the effect not stated beside the values
- Cond: 30 µM

Would you please look over these solved cases?
CC(=O)N1CC(Cc2nccc3ccn(C)c23)C1: -6.59%
CN(C)c1nccc(N2CCO[C@H]3CN(CC4CCOCC4)C[C@H]32)n1: -7.93%

Consider the molecule CC(Cn1cccn1)NC(=O)NCCc1ccc(Cl)s1 (centres undefined) . State its measured Percent Effect.
-2.95%

Consider the molecule `Fc1ccc(CCN2CCC(c3nnc(-c4cccnc4)o3)CC2)cc1` . State its measured Percent Effect.
-14%

###

Percent Effect values by entry
- Organism: Homo sapiens
- Method Notes: To identify inhibition of the IFN signalling (Jak-Stat) pathway via expression of an eGFP reporter gene under the control of an IFN-stimulated response element (ISRE) containing MxA promoter.
- Format: functional
- Parameters: scale not given: direction of the effect not stated beside the values
- Cond: 30 µM
Express your answer in %, writing the number without its unit.

Would you please look over these solved cases?
Cc1cc2c(cc1C)C(NCc1nnc3n1CCCCC3)CCCO2 (configuration not stated): -23.2
CC(C)CN1CCC(c2nc3c([nH]2)CC(C)(C)CNC3=O)C1 (configuration not stated): 19.8
N#Cc1ccc(F)c(CN2CCCC2Cn2cnc3ccccc32)c1 (configuration not stated): 22.9
CCCc1cc(C(=O)N(C)Cc2cnc3ccccc3n2)n(C)n1: 7.96
Cc1nccn1CCCC(=O)N1CCC(Nc2cccnn2)CC1: 1.39

Consider the compound `CCn1ccc(C(=O)NCCCN2CCOCC2)n1` . State its measured Percent Effect.
4.11

Consider the compound Cc1cc(C)n(C2CN(CC(O)c3ccc(F)cc3)C2)n1 (configuration not stated) . State its measured Percent Effect.
4.19

Consider the compound Fc1cccc(-n2ccc(CN3CCCCC3Cn3cncn3)n2)c1 (configuration not stated) . State its measured Percent Effect.
17

###

- Species: Homo sapiens
- Method Notes: To identify inhibition of the IFN signalling (Jak-Stat) pathway via expression of an eGFP reporter gene under the control of an IFN-stimulated response element (ISRE) containing MxA promoter.
- Type: functional
- Parameters: scale not given: direction of the effect not stated beside the values
- Cond: 30 µM
Metric Name: Percent Effect (%)
Express your answer in %, writing the number without its unit.

Would you please look over these solved cases?
CCC1CN(c2nnc(C)c(C)c2C#N)CCO1 (stereo not drawn): 9.86
Cc1nc2ccccc2nc1CN1CCCC1Cn1cncn1 (stereo not drawn): 13.1
Cc1cc(C)n(C2CCCN(C(=O)c3cccc4[nH]ncc34)C2)n1 (stereo not drawn): -0.356
CN(Cc1ccco1)C(=O)CN1CCCC(Cn2cncn2)C1 (stereo not drawn): -16.1
Cc1nc(N2CCCC2)nc2c1CN(C(C)C)CC2: -7.95

Consider the compound `Cc1ccc(CNC(=O)Nc2cc(C(F)(F)F)c[nH]c2=O)cn1` . State its measured Percent Effect.
-18.5

Consider the compound CC(O)CN1CCN(C(=O)c2cccc(CC#N)c2)CC1 (stereo not drawn) . State its measured Percent Effect.
27

Consider the compound C=Cc1ccc(C(=O)N2CCCC(Nc3ccc(OC)cc3)C2)cc1 (stereo not drawn) . State its measured Percent Effect.
12.3

###

Percent Effect values by entry
- Organism: Homo sapiens
- Method Notes: To identify inhibition of the IFN signalling (Jak-Stat) pathway via expression of an eGFP reporter gene under the control of an IFN-stimulated response element (ISRE) containing MxA promoter.
- Assay type: functional
- Set-up: scale not given: direction of the effect not stated beside the values
- Cond: 30 µM
Express your answer in %, writing the number without its unit.

COCc1ccccc1C(=O)NCCCN1CCCC1C(=O)N(C)C (stereo not drawn): 13.9
CC(C)c1noc(C(C)N2CCN(CCN3CCCC3=O)CC2)n1 (stereo not drawn): 9.64

// moving on: another record for Percent Effect
Consider the compound Cc1cc(C[S+]([O-])CC(=O)Nc2c(C)cccc2C)no1 (stereo not drawn) . State its measured Percent Effect.
5.44

###

- System Under Test: AMP-activated protein kinase, AMPK (Homo sapiens) (UniProt P54646+O43741+P54619+Q9UGJ0+Q9Y478+Q13131+Q9UGI9)
- Method Notes: AMP-dependent Kinase enzyme assay. An in vitro enzyme assay that detects ADP turnover that is directly proportional to AMPK activity. This uses naive AMPK that is activated during the assay with MK-8722
- Assay type: functional
- Parameters: scale not given: direction of the effect not stated beside the values
- Cond: 30 µM
Percent Effect values by entry
Express your answer in %, writing the number without its unit.

Would you please look over these solved cases?
COc1cccc(COCC(=O)N2CCCC(N3CCCC3)CC2)c1 (stereo not given): 4.62
COCCN1CCC(NCc2ccc(C#N)cc2)C1 (stereo not given): -5.29
Cc1nc(CN2CCCC2c2nc(C(C)C)no2)cs1 (stereo not given): -18.2
c1cnn(-c2ccc(CN3CCOC(Cn4cncn4)C3)cc2)c1 (stereo not given): 0.7
Cc1cnn(CC2CCCCN2C(=O)c2ccnc(N(C)C)c2)c1 (stereo not given): 2.75

Consider the compound `Cc1csc(N2CCCN(Cc3noc(C)n3)CC2)n1` . State its measured Percent Effect.
-4.18

Consider the compound `N#Cc1cccc(CN2CC[C@@H]3[C@@H]2CC(=O)N3Cc2cccnc2)c1` . State its measured Percent Effect.
12.4

Consider the compound `CCc1nnc2n1CCN(CCS(=O)(=O)c1ccccc1)C2` . State its measured Percent Effect.
6.16

Consider the compound `N#CCSCCCN1CCN(C(=O)c2ccc(Cl)cc2)CC1` . State its measured Percent Effect.
6.65
